These measurements were taken from ChEMBL document CHEMBL1649230.

assayProcedure: Cytotoxicity against human HeLa cells after 3 days by MTT assay
Type: cell-based
Provide the reported CC50 at 72 h of each item.

Query: Sample "CCOc1cc(/C=C2\SC(=S)N(c3cccnc3)C2=O)ccc1O" — what was its CC50 at 72 h?
Reply: ≥ 100 µM

Query: Sample "C=CCOc1cc(/C=C2\SC(=S)N(c3ccc(F)cc3)C2=O)ccc1O" — what was its CC50 at 72 h?
Reply: 76.4 µM

Query: Sample "CCOc1cc(/C=C2\SC(=S)N(c3ccc(F)cc3)C2=O)ccc1O" — what was its CC50 at 72 h?
Reply: ≥ 100 µM

Query: Sample "CCOc1cc(/C=C2\SC(=S)N(c3cccc(F)c3)C2=O)ccc1O" — what was its CC50 at 72 h?
Reply: ≥ 100 µM

###

Provide the reported MBIC of each item.
System: Staphylococcus aureus
assayProcedure: Antimicrobial activity against community acquired methicillin-susceptible Staphylococcus aureus assessed as inhibition of bacterial biofilm after 18 hrs by broth microdilution method
Type: functional
Express your answer in µM, writing the number without its unit.

Query: Lookup: MBIC / Staphylococcus aureus / "CCOc1cc(/C=C2\SC(=S)N(c3ccc(F)cc3)C2=O)ccc1O"
Reply: 14.9

Query: Lookup: MBIC / Staphylococcus aureus / "C=CCOc1cc(/C=C2\SC(=S)N(c3ccc(F)cc3)C2=O)ccc1O"
Reply: 10.5

Query: Lookup: MBIC / Staphylococcus aureus / "CCOc1cc(/C=C2\SC(=S)N(c3cccc(F)c3)C2=O)ccc1O"
Reply: 14.9

Query: Lookup: MBIC / Staphylococcus aureus / "CCOc1cc(/C=C2\SC(=S)N(c3cccnc3)C2=O)ccc1O"
Reply: 12.5

###

Tested on: Staphylococcus epidermidis
assayProcedure: Antimicrobial activity against Staphylococcus epidermidis 1457 on medical grade silicone disk assessed as inhibition of bacterial biofilm after 18 hrs by broth microdilution method
Type: functional
Provide the reported MBIC90 of each item.
Express your answer in µM, writing the number without its unit.

Query: Sample "C=CCOc1cc(/C=C2\SC(=S)N(c3ccc(F)cc3)C2=O)ccc1O" — what was its MBIC90?
Reply: 59.5

Query: Sample "CCOc1cc(/C=C2\SC(=S)N(c3ccc(F)cc3)C2=O)ccc1O" — what was its MBIC90?
Reply: 42

Query: Sample "CCOc1cc(/C=C2\SC(=S)N(c3cccc(F)c3)C2=O)ccc1O" — what was its MBIC90?
Reply: 59.5

Query: Sample "CCOc1cc(/C=C2\SC(=S)N(c3cccnc3)C2=O)ccc1O" — what was its MBIC90?
Reply: 35.4

###

Tested on: Enterococcus faecalis
assayProcedure: Antimicrobial activity against vancomycin-resistant Enterococcus faecalis isolate F317 assessed as inhibition of bacterial biofilm after 18 hrs by broth microdilution method
Type: functional
recordedMetric: MBIC

Query: Sample "CCOc1cc(/C=C2\SC(=S)N(c3ccc(F)cc3)C2=O)ccc1O" — what was its MBIC?
Reply: 25 µM

Query: Sample "CCOc1cc(/C=C2\SC(=S)N(c3cccc(F)c3)C2=O)ccc1O" — what was its MBIC?
Reply: 100 µM

Query: Sample "C=CCOc1cc(/C=C2\SC(=S)N(c3ccc(F)cc3)C2=O)ccc1O" — what was its MBIC?
Reply: 100 µM

Query: Sample "CCOc1cc(/C=C2\SC(=S)N(c3cccnc3)C2=O)ccc1O" — what was its MBIC?
Reply: 15.7 µM

###

Tested on: Staphylococcus aureus
assayProcedure: Antimicrobial activity against Staphylococcus aureus ATCC 35556 assessed as inhibition of bacterial biofilm formation after 18 hrs by broth microdilution method in presence of 10 ug/ml fibronectin
Format: functional
recordedMetric: MBIC (µM)
Express your answer in µM, writing the number without its unit.

Query: Sample "C=CCOc1cc(/C=C2\SC(=S)N(c3ccc(F)cc3)C2=O)ccc1O" — what was its MBIC?
Reply: 3.125

Query: Sample "CCOc1cc(/C=C2\SC(=S)N(c3cccc(F)c3)C2=O)ccc1O" — what was its MBIC?
Reply: 6.25

Query: Sample "CCOc1cc(/C=C2\SC(=S)N(c3ccc(F)cc3)C2=O)ccc1O" — what was its MBIC?
Reply: 6.25

Query: Sample "CCOc1cc(/C=C2\SC(=S)N(c3cccnc3)C2=O)ccc1O" — what was its MBIC?
Reply: 12.5
